This collection of values is drawn from patent US9918968B2.

System: human 20S proteasome, T-L peptidase
Construct: purchased Enzo LifeSciences
Experiment: T-L peptidase activity of purified human 20S proteasome (BocLRR-MCA)
Format: biochemical
Details: maximal activation effect, % above the control activity
I'd appreciate it if you could supply Bmax [%]: T-L values for the items below.
Give bare numbers, in %.

Illustrative cases are given below, each with its answer.
compound | measured-on | value-reported
C=CC[C@@H]1/C=C(\C)C[C@H](C)C[C@H](OC)[C@H]2O[C@@](O)(C(=O)C(=O)N3CCCC[C@H]3C(=O)O[C@H](/C(C)=C/[C@@H]3CC[C@@H](O)[C@H](OC)C3)[C@H](C)[C@@H](O)CC1=O)[C@H](C)C[C@@H]2OC [FK-506] | human 20S proteasome, T-L peptidase | 257
CO[C@H]1C[C@@H]2CC[C@@H](C)[C@@](O)(O2)C(=O)C(=O)N2CCCC[C@H]2C(=O)O[C@H]([C@H](C)C[C@@H]2CC[C@@H](OC(=O)C(C)(CO)CO)[C@H](OC)C2)CC(=O)[C@H](C)/C=C(\C)[C@@H](O)[C@@H](OC)C(=O)[C@H](C)C[C@H](C)/C=C/C=C/C=C/1C [temsirolimus] | human 20S proteasome, T-L peptidase | 81
CO[C@@H](C[C@@H]1CC[C@@H](C)[C@](O)(C(=O)C(=O)N2CCCC[C@H]2C(=O)[O-])O1)/C(C)=C/C=C/C=C/[C@@H](C)C[C@@H](C)C(=O)[C@H](OC)[C@H](O)/C(C)=C/[C@@H](C)C(=O)/C=C/[C@H](C)C[C@@H]1CC[C@@H](O)[C@H](OC)C1.[Na+] [seco-rapamycin] | human 20S proteasome, T-L peptidase | 77

Continue with the compound presented below.
Bmax [%]: T-L recorded for this compound, CO[C@H]1C[C@@H]2CC[C@@H](C)[C@@](O)(O2)C(=O)C(=O)N2CCCC[C@H]2C(=O)O[C@H]([C@H](C)C[C@@H]2CC[C@@H](OCCO)[C@H](OC)C2)CC(=O)[C@H](C)/C=C(\C)[C@@H](O)[C@@H](OC)C(=O)[C@H](C)C[C@H](C)/C=C/C=C/C=C/1C [everolimus] , is 93
